Below, each of the sequences is paired with its reported PBM binding z-score value.
- Test system: RARb homodimer (NR concentration 270 nM)
- protocol_description: PBM binding z-score (relative to random genomic background probes); higher = stronger binding; sequences stand for … in GC…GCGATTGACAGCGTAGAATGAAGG
// print number alone

Form: sequence = CCTACTGGGCCAAAGGTCAGTGATTCCAATGCTC ; PBM binding z-score = 4.33

Continuing:
response.value for ATACGTAGGTTATCGGGTCATTCAGTTTGCGCAT (field: PBM binding z-score) = 2.77

The sequence listed as CCTACTGGGCCATTCAGAGGTCATCGATCATATG has a reported PBM binding z-score of 4.27

Entry CGAACTAGGTCACTAGGACAGTGAAGAGGTTGGA ; PBM binding z-score = 3.02

Record summary for CCTACTGGGCCACGAAAGGTGATTGATTCAGTGA : reported PBM binding z-score = 1.02

PBM binding z-score for ATCGAACGGTCGACGAGGTGAGTATACACCGTTT is 0.461

Lab note: measured PBM binding z-score of TGAATGACGTTAAAGATCAGGGAACGTGGCGTCG was -0.807

Record CGTCCAAGGTCAATTCTAGGTCAGTGAAAGCATT , field PBM binding z-score: 5.03

Lookup result for CCTACGGGGCCAAAGGTCATTGATTCCAATGCTC ; measured PBM binding z-score: 4.5

Lookup result for GATACAGGGTCAGCTAGAGGGCAGAGTATGGAAA ; measured PBM binding z-score: 4.04

// sample CGGACTAGGTCAAAGGACAGTGAAAGGCGACGTA , its PBM binding z-score was 2.91

----------
- System: LXRa:RXRa (NR concentration 270 nM, RXRa partner concentration 90 nM)
- protocol_description: PBM binding z-score (relative to random genomic background probes); higher = stronger binding; sequences stand for … in GC…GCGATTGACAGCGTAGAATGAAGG
measured_attribute: PBM binding z-score
Reply: number alone, nothing else.

Reported PBM binding z-score of CGAACTTGGTCACCAGGACAGTGAAGAGGTTGGA : -0.231

Lab note: measured PBM binding z-score of CCGAGTAGGTTATGAGGGGGCATTCAGTGCGAAT was 6.86

The sequence listed as CCGAGTAGGATACGAGGGGGCATTCAGTGCGAAT has a reported PBM binding z-score of 1.35

----------
- Tested on: PXR:RXRa (NR concentration 270 nM, RXRa partner concentration 90 nM)
- protocol_description: PBM binding z-score (relative to random genomic background probes); higher = stronger binding; sequences stand for … in GC…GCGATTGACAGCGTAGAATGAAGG
class 1 means recorded PBM binding z-score is 3 or above; class 0 means it is below 3.

Query string: State whether the measured PBM binding z-score reaches 3, counting equality as reaching it, for CCTACTGGGCCAAGGTCATAGATCAGTCAAAGCA
Result string: class 1

Query string: Could you verify whether the entry CCGAGTAGGTTACGAGGGGGCATTCAATGCGAAT shows PBM binding z-score of no less than 3?
Result string: class 1

Query string: Does PBM binding z-score meet or surpass 3 for AGCTCTAGGTAAAAGTTCAGTGAATCCCGAGGAT ?
Result string: class 0

Query string: Is it the case that CGTCCAAGGTCAATGCTAGGTCACTGAAAGCATT has PBM binding z-score reaching or exceeding 3?
Result string: class 1

Query string: Check if PBM binding z-score >= 3 (inclusive). Item: CGAACTAGGGCAAAGGACAGTGAAAGGCGACGTA
Result string: class 0

Query string: Is PBM binding z-score at least 3? Consider GCTGCTAGGTCAACTGATGGTGAGCTAAAGCTCG
Result string: class 0

***
Query string: Reported PBM binding z-score reaches at least 3 for CTATGTAGGTTAAGGGGGTCAGTCAGTTTGAAAG ?
Result string: class 1

Query string: Textbook exercise: given the entry TCGAGTAGGTTTCGGGGGCATTCAGGGATGAAGA , state whether its PBM binding z-score is greater than or equal to 3.
Result string: class 0

----------
Known PBM binding z-score of a selection of sequences
- Tested on: RARb homodimer (NR concentration 270 nM)
- protocol_description: PBM binding z-score (relative to random genomic background probes); higher = stronger binding; sequences stand for … in GC…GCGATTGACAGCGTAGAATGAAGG
Lab note: write the figure by itself, no unit.

PBM binding z-score measured on TAGCCTAGGTCATTGGGCTAGTATAGTACGCATC = 2.59

Just so you know, measured PBM binding z-score for CTCGAAAGGTCGAGCTCAGGTGAGTATACCAAAC came out at 2.85

Record CGTCCAAGGTCACCAGGTCAGTGAAAGCGACGTG , field PBM binding z-score: 5.13

Consider the additional sequence presented here.
Value of measured PBM binding z-score for the entry TTACGAAGGTGAAAGGTCGTTGATGCACGCCTTG : 2.49

----------
- Test system: VDR homodimer (NR concentration 270 nM)
- protocol_description: PBM binding z-score (relative to random genomic background probes); higher = stronger binding; sequences stand for … in GC…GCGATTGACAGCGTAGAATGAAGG
Recorded PBM binding z-score for the following sequences
When you answer, write just the number.

Some sequences with known PBM binding z-score results, for comparison:
Noted for GACACAGGGTCAGCTAGAGGCCAGAGTATGGAAA : its PBM binding z-score reads 0.591

get_value(item= CTATGTAGGTTAAGGGGGTCATTCCGTTTGAAAG , readout=PBM binding z-score) returns 5.23

PBM binding z-score for CGAACTAGGTCACCAGCACAGTGAAGAGGTTGGA is 0.496

response.value for TAGCCTAGGTCATAGGCCAGTATACCACGCGAAC (field: PBM binding z-score) = 0.651

// recorded PBM binding z-score for CCTTACGGGTCAAGGTTATACCACGGGTGGTACG : 1.65

Measured PBM binding z-score of CCGGGTAGGTTACGAGGGGGCATTCAGTGCGAAT : 2.55

Data point: CCTACTGGGCCAAAACGGTCATTGATGCCGATAA ; PBM binding z-score = -0.184

Lookup result for CGAACTAGGTCTCCAGGACAGTGAAGAGGTTGGA ; measured PBM binding z-score: -0.34

Further cases:
Measured PBM binding z-score, TCATATAGGTAATAGGTGAAAGTCGGTGTGGTAA : 0.435

Record TTACCAAGGTGAAGGTCGTGGATCCCTCTGTAGA . Reported PBM binding z-score: 0.222

Entry CTATGTAGGTTAAGGGGGTCCTTCAGTTTGAAAG ; PBM binding z-score = 1.49

Notebook: TCTTGTTGATCAAAGGTTAAGAAAGCCGAAGCCT , PBM binding z-score read as 0.435

Lab note: TAGCCTAGGTCATGCGGGCCAGTATAGTGTCGGC gave PBM binding z-score of 0.814

Reported PBM binding z-score for TCGACTAGGTTACGGGGGCATTCAGGGATGAAGA was 3.72

# sequence CGAACTAGGTCAAATGACAGTGAAAGGCGACGTA ; its PBM binding z-score = 0.337

----------
Entries and their measured PBM binding z-score follow.
- Tested on: RXRa homodimer (NR concentration 180 nM)
- protocol_description: PBM binding z-score (relative to random genomic background probes); higher = stronger binding; sequences stand for … in GC…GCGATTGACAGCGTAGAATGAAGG
No unit in the answer, please; the number alone is enough.

Consider the following illustrative entries.
The measured PBM binding z-score that CCCAGTAGGTTACGAGGGGGCATTCAGTGCGAAT showed for RXRa homodimer (NR concentration 180 nM) is 2.04

Test item ATATCTAGGTTAGGGTCATTCAGAAAGTAGGGAA ; RXRa homodimer (NR concentration 180 nM); reported PBM binding z-score was 4.98

Sample ATATGTAGGTTAGGGTCATTCGGAAAGTAGGGAA , system: RXRa homodimer (NR concentration 180 nM). Its PBM binding z-score is 5.06

Hey, RXRa homodimer (NR concentration 180 nM) data for TCTAGGAGGACACGAAGGTCAGAGCTTTCCAGAG : PBM binding z-score came out at 2.01

Now look at this entry.
Kindly note: RXRa homodimer (NR concentration 180 nM), TCGAGTAGGTTACGGGGGCGTTCAGGGATGAAGA , PBM binding z-score value reported: 2.05

----------
- Tested on: PPARa:RXRa (NR concentration 270 nM, RXRa partner concentration 90 nM)
- protocol_description: PBM binding z-score (relative to random genomic background probes); higher = stronger binding; sequences stand for … in GC…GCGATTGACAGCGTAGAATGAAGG
Mark false for PBM binding z-score values under 5, and true for everything at or above.

Check out these entries, answers already filled in.
Query string: # bool: PBM binding z-score of CCTTACGGGTCACTGACAGGTCATAGCATTTGGA >= 5
Result string: true

Query string: Answer whether PBM binding z-score of TTACCAAAGTGAAAGGTCGTTGATGCACGCCTTG is greater than or equal to 5.
Result string: false

Query string: Quick check, PBM binding z-score >= 5? CGAACTAGGTCCCCAGGACAGTGAAGAGGTTGGA
Result string: false

Query string: State whether the measured PBM binding z-score reaches 5, counting equality as reaching it, for ATAGAAAGGTCGAAGGTGAGTATACCCACCCGAA
Result string: false

Query string: In plain terms: is recorded PBM binding z-score at least 5 for GCTCGGAGGACAAGGTCACAGCTTTGTCCGTAGA ?
Result string: false

---
Query string: Record CCGAGTAGGTTACCAGGGGGCATTCAGTGCGAAT ; criterion: PBM binding z-score no lower than 5. Met?
Result string: false

Query string: Identify whether the reported PBM binding z-score of the following sequence is 5 or greater: ATATGTAGGTTACATGCGGGTCATTCAGGCTATG
Result string: false

Query string: Kindly determine if PBM binding z-score recorded for ATATGTAGGTTAGGCTCATTCAGAAAGTAGGGAA is above or exactly 5.
Result string: false

Query string: PBM binding z-score >= 5 for CCGAGTAGGTTACGAGGGGACATTCAGTGCGAAT ?
Result string: false
